# TESTED ON: Acetylcholinesterase (Homo sapiens)
# PROTOCOL SUMMARY: Acetylcholinesterase (AChE) small molecule antagonists: fluorescence cell-based qHTS assay (AID 1347398); note: nearly all actives have a fitted effect of over 50% in size
# STUDY CONDITIONS: SH-SY5Y cells; AChE activity; series mostly up to 115 µM
Inconclusive results are not listed. Active and inactive are the calls of the source. Calls come from the whole dose curve.

| GIVEN SMILES | TESTED ON | outcome |
| --- | --- | --- |
| ClC(Cl)c1ccccc1 | Acetylcholinesterase (Homo sapiens) | inactive |
| Cl/C=C/Cl | Acetylcholinesterase (Homo sapiens) | inactive |
| N#Cc1cccc(C#N)c1 | Acetylcholinesterase (Homo sapiens) | inactive |
| Cc1cccc(C)c1N | Acetylcholinesterase (Homo sapiens) | inactive |
| O=C(O)c1cc(Oc2ccc(C(F)(F)F)cc2Cl)ccc1[N+](=O)[O-] | Acetylcholinesterase (Homo sapiens) | inactive |
| O=[N+]([O-])c1ccc(Cl)c(Cl)c1 | Acetylcholinesterase (Homo sapiens) | inactive |
| N#CN=C(N)N | Acetylcholinesterase (Homo sapiens) | inactive |
| Cc1ccc(N=C=O)cc1N=C=O | Acetylcholinesterase (Homo sapiens) | inactive |
| Nc1cc(Cl)cc(Cl)c1 | Acetylcholinesterase (Homo sapiens) | inactive |
| COC(=O)Nc1cccc(OC(=O)Nc2cccc(C)c2)c1 | Acetylcholinesterase (Homo sapiens) | inactive |
